TARGET OR SYSTEM: MMP-9 (Homo sapiens, UniProt P14780)
Construct: from tissue; host or cells: human polymorphonuclear leukocytes (PMN) from whole blood (New York Blood Center), PMA-stimulated supernatant
Sequence (P14780 107-707 limits assumed): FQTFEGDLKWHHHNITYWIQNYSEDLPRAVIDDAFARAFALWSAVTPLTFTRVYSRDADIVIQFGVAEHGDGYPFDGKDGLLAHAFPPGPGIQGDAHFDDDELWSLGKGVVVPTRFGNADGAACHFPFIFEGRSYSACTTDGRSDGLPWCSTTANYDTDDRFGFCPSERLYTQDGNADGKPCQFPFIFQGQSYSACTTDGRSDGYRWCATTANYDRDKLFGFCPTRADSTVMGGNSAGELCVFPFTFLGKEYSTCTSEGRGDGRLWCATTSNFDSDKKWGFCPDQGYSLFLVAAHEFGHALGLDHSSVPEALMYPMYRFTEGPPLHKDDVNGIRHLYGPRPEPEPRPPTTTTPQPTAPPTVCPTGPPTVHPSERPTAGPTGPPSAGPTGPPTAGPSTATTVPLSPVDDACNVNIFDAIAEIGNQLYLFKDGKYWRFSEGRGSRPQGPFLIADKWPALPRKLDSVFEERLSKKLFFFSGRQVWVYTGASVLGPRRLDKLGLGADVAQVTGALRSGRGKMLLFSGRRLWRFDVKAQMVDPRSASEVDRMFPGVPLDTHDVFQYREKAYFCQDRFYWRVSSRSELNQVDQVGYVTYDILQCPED
PROTOCOL DESCRIPTION: Thiopeptilide MMP-9 Inhibition Assay
Format: biochemical
CONDITIONS: pH 6.5; x (n) = average of n determinations; read-out: MMP-9: Thiopep. IC50
Lab note: compare IC50 with 0.5 µM, writing T if less and F if equal or more.

COMPOUND: O=C(CC(CSc1ccc([N+](=O)[O-])cc1)C(=O)O)c1ccc(-c2ccc(Cl)cc2)cc1 (centres unmarked)
LABEL CLASS: F
--
COMPOUND: O=C(CC(CSc1cccs1)C(=O)O)c1ccc(-c2ccc(Cl)cc2)cc1 (centres unmarked)
LABEL CLASS: T
--
COMPOUND: O=C(CC(CCCCCc1ccccc1)C(=O)O)c1ccc(-c2ccc(Cl)cc2)cc1 (centres unmarked)
LABEL CLASS: T
--
COMPOUND: O=C(O)[C@H]1[C@@H](Sc2ccccc2)CC[C@@H]1C(=O)c1ccc(-c2ccc(Cl)cc2)cc1 (relative stereo)
LABEL CLASS: F
--
COMPOUND: CCC(C)(CC(=O)O)CC(=O)c1ccc(-c2ccc(Cl)cc2)cc1 (centres unmarked)
LABEL CLASS: F
--
COMPOUND: CCC(CC(=O)c1ccc(-c2ccc(Cl)cc2)cc1)C(=O)O (centres unmarked)
LABEL CLASS: F
--
COMPOUND: O=C(CCC(CCCc1ccccc1)C(=O)O)c1ccc(-c2ccc(Cl)cc2)cc1 (centres unmarked)
LABEL CLASS: F
--
COMPOUND: Cc1cccc(SCC(CC(=O)c2ccc(-c3ccc(Cl)cc3)cc2)C(=O)O)c1 (centres unmarked)
LABEL CLASS: F
--
COMPOUND: O=C(CC(CSc1cccc2ccccc12)C(=O)O)c1ccc(-c2ccc(Cl)cc2)cc1 (centres unmarked)
LABEL CLASS: T
--
COMPOUND: O=C(CC(CSc1ccccc1Cl)C(=O)O)c1ccc(-c2ccc(Cl)cc2)cc1 (centres unmarked)
LABEL CLASS: F
--
COMPOUND: O=C(C[C@H](CCCc1ccccc1)C(=O)O)c1ccc(-c2ccc(Br)cc2)cc1
LABEL CLASS: T
--
COMPOUND: O=C(CC(CSCCc1ccccc1)C(=O)O)c1ccc(-c2ccc(Cl)cc2)cc1 (centres unmarked)
LABEL CLASS: T
--
COMPOUND: COc1ccc(SCC(CC(=O)c2ccc(-c3ccc(Cl)cc3)cc2)C(=O)O)cc1 (centres unmarked)
LABEL CLASS: T
--
COMPOUND: O=C(CC(CCc1ccccc1)C(=O)O)c1ccc(-c2ccc(Cl)cc2)cc1 (centres unmarked)
LABEL CLASS: F
--
COMPOUND: O=C(CC(CCCc1ccccc1)C(=O)O)c1ccc(-c2ccc(CO)cc2)cc1 (centres unmarked)
LABEL CLASS: F
--
COMPOUND: C=CCC(CC(=O)c1ccc(-c2ccc(Cl)cc2)cc1)C(=O)O (centres unmarked)
LABEL CLASS: F

* * *

TARGET OR SYSTEM: MMP-3 (Homo sapiens, UniProt P08254)
Construct: Truncated Prostromelysin-257 was expressed in a soluble form in E.coli; made in house; host or cells: E. coli
Sequence (P08254 100-274 limits assumed): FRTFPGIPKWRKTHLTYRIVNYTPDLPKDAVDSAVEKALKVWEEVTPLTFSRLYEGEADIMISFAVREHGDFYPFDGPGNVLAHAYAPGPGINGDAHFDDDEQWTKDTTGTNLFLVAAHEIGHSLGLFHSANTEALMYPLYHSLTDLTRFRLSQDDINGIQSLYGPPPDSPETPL
PROTOCOL DESCRIPTION: Automated MMP Profiling Assay, MMP-3 fluorogenic
Assay type: biochemical
CONDITIONS: 96-well automated, P218
pIC50: −log10 of the molar value.
Threshold check on pIC50: at or above 7 gives YES, strictly below gives NO.

MOLECULE: COC/C=C\c1ccc(-c2ccc(C(=O)CC(CCCc3ccccc3)C(=O)O)cc2)cc1 (stereo not drawn)
TARGET OR SYSTEM: MMP-3 (Homo sapiens, UniProt P08254)
LABEL CLASS: NO

MOLECULE: CCCCCOc1ccc(-c2ccc(C(=O)[C@H]3CC[C@@H](Cc4ccccc4)[C@@H]3C(=O)O)cc2)cc1
TARGET OR SYSTEM: MMP-3 (Homo sapiens, UniProt P08254)
LABEL CLASS: YES

MOLECULE: O=C(c1ccc(-c2ccc(Cl)cc2)cc1)[C@H]1CCN(C(=O)Cc2ccccc2)[C@@H]1C(=O)O
TARGET OR SYSTEM: MMP-3 (Homo sapiens, UniProt P08254)
LABEL CLASS: NO

MOLECULE: O=C(O)[C@H]1[C@H](CN2C(=O)c3ccccc3C2=O)CC[C@@H]1C(=O)c1ccc(-c2ccc(Cl)cc2)cc1 (relative stereo) [Example 360]
TARGET OR SYSTEM: MMP-3 (Homo sapiens, UniProt P08254)
LABEL CLASS: YES

MOLECULE: CCN(CC)C(=O)c1ccc(CCC(CC(=O)c2ccc(-c3ccc(Cl)cc3)cc2)C(=O)O)cc1 (stereo not drawn)
TARGET OR SYSTEM: MMP-3 (Homo sapiens, UniProt P08254)
LABEL CLASS: NO

MOLECULE: O=C(O)[C@@H]1[C@@H](C(=O)c2ccc(-c3ccc(Cl)cc3)cc2)CC[C@H]1Sc1ccccc1 (relative stereo) [Example 294]
TARGET OR SYSTEM: MMP-3 (Homo sapiens, UniProt P08254)
LABEL CLASS: YES

MOLECULE: CC(=O)O[C@@H]1C[C@H](C(=O)c2ccc(-c3ccc(Cl)cc3)cc2)[C@H]1C(=O)O (relative stereo)
TARGET OR SYSTEM: MMP-3 (Homo sapiens, UniProt P08254)
LABEL CLASS: NO

MOLECULE: CCN(CC)C(=O)c1cccc(SCC(CC(=O)c2ccc(-c3ccc(Cl)cc3)cc2)C(=O)O)c1 (stereo not drawn)
TARGET OR SYSTEM: MMP-3 (Homo sapiens, UniProt P08254)
LABEL CLASS: YES

MOLECULE: O=C(CC(CCc1ccccc1C(=O)O)C(=O)O)c1ccc(-c2ccc(Cl)cc2)cc1 (stereo not drawn)
TARGET OR SYSTEM: MMP-3 (Homo sapiens, UniProt P08254)
LABEL CLASS: NO

MOLECULE: CCCCCOc1ccc(-c2ccc(C(=O)C[C@H](CCCc3ccccc3)C(=O)O)cc2)cc1
TARGET OR SYSTEM: MMP-3 (Homo sapiens, UniProt P08254)
LABEL CLASS: YES

MOLECULE: O=C(CC(CC[S+]([O-])c1ccccc1)C(=O)O)c1ccc(-c2ccc(Cl)cc2)cc1 (stereo not drawn)
TARGET OR SYSTEM: MMP-3 (Homo sapiens, UniProt P08254)
LABEL CLASS: YES

* * *

TARGET OR SYSTEM: MMP-9 (Homo sapiens)
Construct: from tissue; host or cells: human polymorphonuclear leukocytes (PMN) from whole blood (New York Blood Center), PMA-stimulated supernatant
PROTOCOL DESCRIPTION: Automated MMP Profiling Assay, MMP-9 fluorogenic
Type: biochemical
CONDITIONS: 96-well automated, P218
Listed below: IC50 values for each entry.

COMPOUND: O=C(CC(CCN1C(=O)c2cccc(O)c2C1=O)C(=O)O)c1ccc(-c2ccc(Cl)cc2)cc1 (stereo not shown)
IC50 (nM): 1.7
--
COMPOUND: C=CCOc1ccc(-c2ccc(C(=O)CC(CCCc3ccccc3)C(=O)O)cc2)cc1 (stereo not shown)
IC50 (nM): 77
--
COMPOUND: O=C(CC(CCc1ccccc1)C(=O)O)c1ccc(-c2ccc(OCc3ccccc3)cc2)cc1 (stereo not shown)
IC50 (nM): 1560
--
COMPOUND: O=C(O)[C@H]1[C@H](CN2C(=O)c3cc(Cl)c([N+](=O)[O-])cc3C2=O)CC[C@@H]1C(=O)c1ccc(-c2ccc(Cl)cc2)cc1 (relative stereo)
IC50 (nM): 1.2
--
COMPOUND: O=C(O)[C@H]1[C@H](COCc2ccccc2)CC[C@@H]1C(=O)c1ccc(-c2ccc(Cl)cc2)cc1 (relative stereo)
IC50 (nM): 58
--
COMPOUND: COC/C=C\c1ccc(-c2ccc(C(=O)CC(CCCc3ccccc3)C(=O)O)cc2)cc1 (stereo not shown)
IC50 (nM): 1710
--
COMPOUND: CCCSC[C@@H]1CC[C@H](C(=O)c2ccc(-c3ccc(Cl)cc3)cc2)[C@H]1C(=O)O (relative stereo)
IC50 (nM): 271

* * *

TARGET OR SYSTEM: MMP-3 (Homo sapiens, UniProt P08254)
Construct: Truncated Prostromelysin-257 was expressed in a soluble form in E.coli; made in house; host or cells: E. coli
PROTOCOL DESCRIPTION: Automated MMP Profiling Assay, MMP-3 fluorogenic
Format: biochemical
CONDITIONS: 96-well automated, P218
Measured IC50 accompanies every entry in the list below.

COMPOUND: CCCCCOc1ccc(-c2ccc(C(=O)CC(CCCc3ccccc3)C(=O)O)cc2)cc1 (stereo not shown)
IC50, nM: 80
//
COMPOUND: O=C(O)[C@H]1[C@H](CN2C(=O)c3cc(Cl)c(Cl)cc3C2=O)CC[C@@H]1C(=O)c1ccc(-c2ccc(Cl)cc2)cc1 (relative stereo)
IC50, nM: 19
//
COMPOUND: CCCCCSc1ccc(-c2ccc(C(=O)CC(CCCc3ccccc3)C(=O)O)cc2)cc1 (stereo not shown)
IC50, nM: 409
//
COMPOUND: O=C(C[C@H](CS(=O)(=O)c1ccccc1)C(=O)O)c1ccc(-c2ccc(Cl)cc2)cc1
IC50, nM: 399
//
COMPOUND: O=C(CC(CCCc1ccccc1)C(=O)O)c1ccc(-c2ccc(OCC3CCCCC3)cc2)cc1 (stereo not shown)
IC50, nM: 129
//
COMPOUND: CCOc1ccc(-c2ccc(C(=O)CC(CCN3C(=O)c4cc5ccccc5cc4C3=O)C(=O)O)cc2)cc1 (stereo not shown)
IC50, nM: 23
//
COMPOUND: O=C(CC(CCCc1ccccc1)C(=O)O)c1ccc(-c2ccc(OCc3cccnc3)cc2)cc1 (stereo not shown)
IC50, nM: 28

Origin of values: patent US5789434A
